molecular target: Coagulation factor IX (Homo sapiens)
Sequence (P00740 47-191 limits assumed): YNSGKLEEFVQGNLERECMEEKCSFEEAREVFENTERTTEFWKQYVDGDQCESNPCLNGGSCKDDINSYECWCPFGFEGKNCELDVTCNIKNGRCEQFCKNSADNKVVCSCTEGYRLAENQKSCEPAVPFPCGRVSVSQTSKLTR
Sequence (P00740 227-461 limits assumed): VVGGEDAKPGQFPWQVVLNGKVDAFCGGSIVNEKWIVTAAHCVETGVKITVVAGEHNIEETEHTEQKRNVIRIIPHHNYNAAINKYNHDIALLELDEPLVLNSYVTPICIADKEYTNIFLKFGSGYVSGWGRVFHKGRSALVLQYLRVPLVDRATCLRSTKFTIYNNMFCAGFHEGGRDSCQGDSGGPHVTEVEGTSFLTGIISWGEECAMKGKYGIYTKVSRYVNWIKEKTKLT
READOUT_LABEL: Ki

structure_smiles=Nc1n[nH]c2cc(-c3nc([C@H](Cc4ccccc4)NC(=O)/C=C/c4cc(Cl)ccc4-n4cnnn4)[nH]c3Cl)ccc12 reported_measurement="> 35 µM"

---

test: Clearance in dog at 0.5 mg/kg, po or 0.4 mg/kg, iv administered in cassette format; type: ADME, organism-based, Canis lupus familiaris; conditions: in vivo
Binary label based on clearance with cut-off 30 mL/min/kg: below gives class 1, not below gives class 0.

compound=Nc1n[nH]c2cc(-c3nc([C@H](Cc4ccccc4)NC(=O)/C=C/c4cc(Cl)ccc4-n4cnnn4)[nH]c3Cl)ccc12 class="class 1"
compound=Nc1nccc2cc(C(=O)N[C@@H](Cc3ccccc3)c3nc(-c4ccc5c(N)n[nH]c5c4)c(Cl)[nH]3)ccc12 class="class 0"
compound="Nc1nccc2c1CCC(C(=O)N[C@@H](Cc1ccccc1)c1nc(-c3ccc4c(N)n[nH]c4c3)c(Cl)[nH]1)C2 (single isomer, unassigned; diastereomer A)" class="class 0"
compound=NC(=O)c1ccc(C(=O)N[C@@H](Cc2ccccc2)c2nc(-c3ccc4c(N)n[nH]c4c3)c(Cl)[nH]2)cc1 class="class 1"
compound=COC(=O)Nc1ccc(-c2nc([C@H](Cc3ccccc3)NC(=O)CCc3cc(Cl)ccc3-n3cnnn3)[nH]c2Cl)cc1 class="class 0"
compound=C[C@H]1CC[C@H](C(=O)N[C@@H](Cc2ccccc2)c2nc(-c3ccc4c(N)n[nH]c4c3)c(Cl)[nH]2)CC1 class="class 1"
compound=COC(=O)Nc1ccc(-c2nc([C@H](Cc3ccccc3)NC(=O)/C=C/c3cc(Cl)ccc3-n3cnnn3)[nH]c2Cl)cc1 class="class 1"

---

biological target: Plasma kallikrein (Homo sapiens, UniProt P03952); experiment: Inhibition of plasma kallikrein (unknown origin)
Sequence (P03952 20-390 limits assumed): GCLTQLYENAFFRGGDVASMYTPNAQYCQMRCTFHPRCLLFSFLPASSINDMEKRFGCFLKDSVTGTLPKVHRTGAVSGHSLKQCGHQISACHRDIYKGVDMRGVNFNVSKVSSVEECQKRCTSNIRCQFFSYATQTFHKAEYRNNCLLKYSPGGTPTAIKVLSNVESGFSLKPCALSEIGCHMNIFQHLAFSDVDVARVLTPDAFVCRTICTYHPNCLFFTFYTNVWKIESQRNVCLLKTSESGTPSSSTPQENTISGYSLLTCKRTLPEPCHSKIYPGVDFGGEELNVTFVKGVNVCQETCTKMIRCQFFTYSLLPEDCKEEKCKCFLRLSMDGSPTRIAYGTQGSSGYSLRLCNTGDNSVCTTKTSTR
Sequence (P03952 391-638 limits assumed): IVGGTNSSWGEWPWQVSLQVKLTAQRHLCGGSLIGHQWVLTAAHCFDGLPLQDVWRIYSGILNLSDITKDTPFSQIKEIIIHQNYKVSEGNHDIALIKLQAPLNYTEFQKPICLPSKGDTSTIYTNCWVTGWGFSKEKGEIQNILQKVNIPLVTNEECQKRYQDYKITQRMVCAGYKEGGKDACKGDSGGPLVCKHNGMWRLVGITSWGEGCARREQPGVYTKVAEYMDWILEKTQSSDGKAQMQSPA
pKi: −log10 of the molar value.
Listed below: pKi values for each entry.
READOUT_LABEL: pKi

structure_smiles=COC(=O)Nc1ccc(-c2c[nH]c([C@H](Cc3ccccc3)NC(=O)/C=C/c3cc(Cl)ccc3-n3cnnn3)n2)cc1 readout_label=pKi reported_measurement=6.62
structure_smiles=Nc1n[nH]c2cc(-c3nc([C@H](Cc4ccccc4)NC(=O)/C=C/c4cc(Cl)ccc4-n4cnnn4)[nH]c3Cl)ccc12 readout_label=pKi reported_measurement=7.39

---

Listed below: Ki values for each entry.
target: Coagulation factor XI (Homo sapiens); test: Inhibition of human coagulation factor 11a at 25 degC
Sequence (P03951 19-387 limits assumed): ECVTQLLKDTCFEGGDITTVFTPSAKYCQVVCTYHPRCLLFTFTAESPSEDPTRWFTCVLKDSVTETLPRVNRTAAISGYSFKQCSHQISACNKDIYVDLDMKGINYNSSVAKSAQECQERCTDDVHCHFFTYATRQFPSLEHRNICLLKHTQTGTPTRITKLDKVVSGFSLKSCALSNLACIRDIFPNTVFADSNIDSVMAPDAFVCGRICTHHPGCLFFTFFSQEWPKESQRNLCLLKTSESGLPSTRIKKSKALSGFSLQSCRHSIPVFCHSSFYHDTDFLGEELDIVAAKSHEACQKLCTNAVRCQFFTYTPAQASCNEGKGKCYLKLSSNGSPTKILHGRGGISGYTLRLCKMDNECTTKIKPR
Sequence (P03951 388-625 limits assumed): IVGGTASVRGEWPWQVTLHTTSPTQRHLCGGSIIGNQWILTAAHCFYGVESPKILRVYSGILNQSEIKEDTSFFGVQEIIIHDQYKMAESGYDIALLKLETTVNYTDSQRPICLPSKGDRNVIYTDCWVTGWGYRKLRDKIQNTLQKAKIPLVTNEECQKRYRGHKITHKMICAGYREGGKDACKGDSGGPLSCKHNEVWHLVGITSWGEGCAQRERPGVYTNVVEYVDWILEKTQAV
READOUT_LABEL: Ki (nM)

compound=NCc1ccc(C(=O)N[C@@H](Cc2ccccc2)c2nc(-c3ccc4c(N)n[nH]c4c3)c(Cl)[nH]2)cc1 target_under_test="Coagulation factor XI (Homo sapiens)" endpoint_unit=nM reported_measurement=1.16
compound=Nc1n[nH]c2cc(-c3nc([C@H](Cc4ccccc4)NC(=O)/C=C/c4cc(Cl)ccc4-n4cnnn4)[nH]c3Cl)ccc12 target_under_test="Coagulation factor XI (Homo sapiens)" endpoint_unit=nM reported_measurement=1.2
compound=NC[C@H]1CC[C@H](C(=O)N[C@@H](Cc2ccccc2)c2nc(-c3ccc4c(N)n[nH]c4c3)c(Cl)[nH]2)CC1 target_under_test="Coagulation factor XI (Homo sapiens)" endpoint_unit=nM reported_measurement=0.31
compound=Nc1nccc2cc(C(=O)N[C@@H](Cc3ccccc3)c3nc(-c4ccc5c(N)n[nH]c5c4)c(Cl)[nH]3)ccc12 target_under_test="Coagulation factor XI (Homo sapiens)" endpoint_unit=nM reported_measurement=19
compound=Nc1n[nH]c2cc(-c3nc([C@H](Cc4ccccc4)NC(=O)[C@H]4CC[C@H](C(N)=O)CC4)[nH]c3Cl)ccc12 target_under_test="Coagulation factor XI (Homo sapiens)" endpoint_unit=nM reported_measurement=2900
compound="Nc1nccc2c1CCC(C(=O)N[C@@H](Cc1ccccc1)c1nc(-c3ccc4c(N)n[nH]c4c3)c(Cl)[nH]1)C2 (single isomer, unassigned; diastereomer B)" target_under_test="Coagulation factor XI (Homo sapiens)" endpoint_unit=nM reported_measurement=2.5
compound=NC(=O)c1ccc(C(=O)N[C@@H](Cc2ccccc2)c2nc(-c3ccc4c(N)n[nH]c4c3)c(Cl)[nH]2)cc1 target_under_test="Coagulation factor XI (Homo sapiens)" endpoint_unit=nM reported_measurement=310

---

Listed below: Vd values for each entry.
assay: Volume of distribution at steady state in dog at 0.5 mg/kg, po or 0.4 mg/kg, iv administered in cassette format; type: ADME, organism-based, Canis lupus familiaris; conditions: in vivo, read-out: Vdss
READOUT_LABEL: Vd (L/kg)

compound=COC(=O)Nc1ccc(-c2nc([C@H](Cc3ccccc3)NC(=O)/C=C/c3cc(Cl)ccc3-n3cnnn3)[nH]c2Cl)cc1 reported_measurement=1.6
compound=C[C@H]1CC[C@H](C(=O)N[C@@H](Cc2ccccc2)c2nc(-c3ccc4c(N)n[nH]c4c3)c(Cl)[nH]2)CC1 reported_measurement=0.9
compound="Nc1nccc2c1CCC(C(=O)N[C@@H](Cc1ccccc1)c1nc(-c3ccc4c(N)n[nH]c4c3)c(Cl)[nH]1)C2 (single isomer, unassigned; diastereomer A)" reported_measurement=2.8
compound=COC(=O)Nc1ccc(-c2c[nH]c([C@H](Cc3ccccc3)NC(=O)/C=C/c3cc(Cl)ccc3-n3cnnn3)n2)cc1 reported_measurement=3.4
compound=Nc1n[nH]c2cc(-c3nc([C@H](Cc4ccccc4)NC(=O)/C=C/c4cc(Cl)ccc4-n4cnnn4)[nH]c3Cl)ccc12 reported_measurement=0.8

---

target: Trypsin (Homo sapiens, UniProt P07477+P07478+P35030); experiment: Inhibition of human trypsin at 25 degC; format: protein assay
READOUT_LABEL: Ki

compound=COC(=O)Nc1ccc(-c2c[nH]c([C@H](Cc3ccccc3)NC(=O)/C=C/c3cc(Cl)ccc3-n3cnnn3)n2)cc1 target_under_test="Trypsin (Homo sapiens, UniProt P07477+P07478+P35030)" readout_label=Ki reported_measurement="> 6.2 µM"
compound=Nc1n[nH]c2cc(-c3nc([C@H](Cc4ccccc4)NC(=O)[C@H]4CC[C@H](C(N)=O)CC4)[nH]c3Cl)ccc12 target_under_test="Trypsin (Homo sapiens, UniProt P07477+P07478+P35030)" readout_label=Ki reported_measurement="> 5 µM"
compound=COc1cc(F)c(C(=O)N[C@@H](Cc2ccccc2)c2nc(-c3ccc4c(N)n[nH]c4c3)c(Cl)[nH]2)c(F)c1 target_under_test="Trypsin (Homo sapiens, UniProt P07477+P07478+P35030)" readout_label=Ki reported_measurement="> 6 µM"
compound=Nc1n[nH]c2cc(-c3nc([C@H](Cc4ccccc4)NC(=O)c4cc(Cl)ccc4F)[nH]c3Cl)ccc12 target_under_test="Trypsin (Homo sapiens, UniProt P07477+P07478+P35030)" readout_label=Ki reported_measurement="> 5 µM"
compound=Nc1nccc2cc(C(=O)N[C@@H](Cc3ccccc3)c3nc(-c4ccc5c(N)n[nH]c5c4)c(Cl)[nH]3)ccc12 target_under_test="Trypsin (Homo sapiens, UniProt P07477+P07478+P35030)" readout_label=Ki reported_measurement="0.38 µM"
compound=COc1ccc(C(=O)N[C@@H](Cc2ccccc2)c2nc(-c3ccc4c(N)n[nH]c4c3)c(Cl)[nH]2)c(F)c1 target_under_test="Trypsin (Homo sapiens, UniProt P07477+P07478+P35030)" readout_label=Ki reported_measurement="> 6 µM"
compound="Nc1nccc2c1CCC(C(=O)N[C@@H](Cc1ccccc1)c1nc(-c3ccc4c(N)n[nH]c4c3)c(Cl)[nH]1)C2 (single isomer, unassigned; diastereomer A)" target_under_test="Trypsin (Homo sapiens, UniProt P07477+P07478+P35030)" readout_label=Ki reported_measurement="2.8 µM"

---

test: Half life in human liver microsomes; format: ADME
Listed below: half-life values for each entry.
READOUT_LABEL: half-life

structure_smiles=Nc1n[nH]c2cc(-c3nc([C@H](Cc4ccccc4)NC(=O)NCc4cc(Cl)ccc4-n4cccn4)[nH]c3Cl)ccc12 reported_measurement="< 1 min"
structure_smiles=Nc1n[nH]c2cc(-c3nc([C@H](Cc4ccccc4)NC(=O)NCc4cc(Cl)ccc4-n4cnnn4)[nH]c3Cl)ccc12 reported_measurement="< 1 min"
structure_smiles=COC(=O)Nc1ccc(-c2nc([C@H](Cc3ccccc3)NC(=O)NCc3cc(Cl)ccc3-n3cnnn3)[nH]c2Cl)cc1 reported_measurement="< 1 min"
structure_smiles=Nc1n[nH]c2cc(-c3nc([C@H](Cc4ccccc4)NC(=O)NCc4cc(Cl)ccc4-n4cncn4)[nH]c3Cl)ccc12 reported_measurement="< 1 min"
structure_smiles=COC(=O)Nc1ccc(-c2nc([C@H](Cc3ccccc3)NC(=O)/C=C/c3cc(Cl)ccc3-n3cnnn3)[nH]c2Cl)cc1 reported_measurement="33 min"

---

assay: Volume of distribution at steady state in dog at 1 mg/kg, po or 0.4 mg/kg, iv administered in discrete format; format: ADME, organism-based, Canis lupus familiaris; conditions: in vivo, read-out: Vdss
READOUT_LABEL: Vd (L/kg)

structure_smiles=NC[C@H]1CC[C@H](C(=O)N[C@@H](Cc2ccccc2)c2nc(-c3ccc4c(N)n[nH]c4c3)c(Cl)[nH]2)CC1 readout_label=Vd reported_measurement=0.92
